# experimental_target: UniProt Q13153
# Sequence (Q13153 whole entry): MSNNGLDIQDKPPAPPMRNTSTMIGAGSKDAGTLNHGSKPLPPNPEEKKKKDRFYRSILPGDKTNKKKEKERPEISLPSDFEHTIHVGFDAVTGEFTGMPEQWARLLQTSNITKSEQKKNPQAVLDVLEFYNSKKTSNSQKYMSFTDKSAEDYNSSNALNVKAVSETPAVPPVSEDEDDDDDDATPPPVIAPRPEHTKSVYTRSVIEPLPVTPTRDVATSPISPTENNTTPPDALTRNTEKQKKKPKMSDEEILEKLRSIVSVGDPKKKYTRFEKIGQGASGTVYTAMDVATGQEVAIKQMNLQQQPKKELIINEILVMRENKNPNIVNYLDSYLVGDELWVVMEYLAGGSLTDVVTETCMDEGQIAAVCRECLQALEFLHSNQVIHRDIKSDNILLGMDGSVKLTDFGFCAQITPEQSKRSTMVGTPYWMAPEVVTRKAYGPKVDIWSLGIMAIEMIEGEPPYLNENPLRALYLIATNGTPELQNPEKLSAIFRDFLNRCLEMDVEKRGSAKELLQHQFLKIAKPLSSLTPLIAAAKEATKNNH
# assay_name: Z'Lyte fluorescence-based (FRET) PAK kinase assay, PAK1
# Assay type: biochemical
# study_conditions: Table 1 of Example 29 (own compound numbering); 50 μM ATP
Listed next: entries and their corresponding IC50.

Solved cases below.
Lab entry: UniProt Q13153 assay, compound CN(C)c1ccc(Nc2ncc3ccc(=O)n(C4CCCC4)c3n2)cc1 , IC50 = > 10000 nM

Record CN1CCCC(Nc2ccc(Nc3ncc4ccc(=O)n(Cc5ccccc5C(F)(F)F)c4n3)cc2)C1 (centres unmarked) has UniProt Q13153 IC50 equal to < 1000 nM

Assay UniProt Q13153, sample CN1CCN(c2ccc(Nc3ncc4ccc(=O)n(Cc5ccccn5)c4n3)cc2)CC1 , IC50 read: 1000 to 10000 nM

Continuing:
Form: item CN(C)CC(c1ccccc1)n1c(=O)ccc2cnc(Nc3ccc(N4CCOCC4)cc3)nc21 (centres unmarked) ; test system UniProt Q13153; IC50: > 10000 nM

CN1CCN(c2ccc(Nc3ncc4ccc(=O)n(C5CCCc6ccccc65)c4n3)cc2)CC1 (centres unmarked) tested on UniProt Q13153 gave IC50: < 1000 nM

Readout IC50 for CN1CCN(c2ccc(Nc3ncc4ccc(=O)n(Cc5ccccc5-n5cccn5)c4n3)cc2)CC1 , test system UniProt Q13153, was < 1000 nM

IC50 on UniProt Q13153 for Cc1ccccc1Cn1c(=O)ccc2cnc(Nc3ccc(N4CCN(C)CC4)cc3)nc21 is < 1000 nM

Case CN1CCN(c2ccc(Nc3ncc4ccc(=O)n(Cc5cccnc5)c4n3)cc2)CC1 , UniProt Q13153, IC50 recorded as 1000 to 10000 nM

Short answer on UniProt Q13153 for CN1CCN(c2ccc(Nc3ncc4ccc(=O)n(C5CCCC5)c4n3)cc2)CC1 , IC50: < 1000 nM

With UniProt Q13153 as the test system, O=c1ccc2cnc(Nc3ccc(NC4CCCNC4)cc3)nc2n1Cc1ccccc1C(F)(F)F (centres unmarked) showed IC50 of < 1000 nM

====

# pIC50 per record follows
# experimental_target: PAK3 (Homo sapiens, UniProt O75914)
# Sequence (O75914 whole entry): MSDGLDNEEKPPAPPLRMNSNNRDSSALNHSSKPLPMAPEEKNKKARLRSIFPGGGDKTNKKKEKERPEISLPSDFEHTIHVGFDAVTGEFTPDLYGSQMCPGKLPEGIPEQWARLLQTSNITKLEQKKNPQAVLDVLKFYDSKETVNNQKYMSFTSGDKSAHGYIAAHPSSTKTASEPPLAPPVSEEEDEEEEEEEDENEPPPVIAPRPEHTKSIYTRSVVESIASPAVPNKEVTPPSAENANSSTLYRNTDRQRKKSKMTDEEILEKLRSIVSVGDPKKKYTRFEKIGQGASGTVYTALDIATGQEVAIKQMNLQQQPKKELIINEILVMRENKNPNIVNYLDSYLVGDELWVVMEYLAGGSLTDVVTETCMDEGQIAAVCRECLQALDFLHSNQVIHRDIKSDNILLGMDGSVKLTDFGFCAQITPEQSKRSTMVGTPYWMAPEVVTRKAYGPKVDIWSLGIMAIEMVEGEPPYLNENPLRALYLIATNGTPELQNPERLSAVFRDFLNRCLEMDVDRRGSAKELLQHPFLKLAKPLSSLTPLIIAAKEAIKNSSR
# assay_name: Z'Lyte fluorescence-based (FRET) PAK kinase assay, PAK3
# Assay type: biochemical
# study_conditions: Table 1 of Example 100; 100 μM ATP
pIC50: −log10 of the molar value.

Example results:
The recorded pIC50 for entry O=c1ccc2cnc(Nc3ccc(OC4CCNCC4)cc3)nc2n1Cc1ccccc1C(F)(F)F equals > 6.00

Field pIC50 (entry COc1ccc(F)cc1Cn1c(=O)ccc2cnc(Nc3ccc(N4CCN(C)CC4)cc3)nc21 ) reads 5.00 to 6.00

Query CN1CCN(c2ccc(Nc3ncc4ccc(=O)n(C5CCc6ccccc6C5)c4n3)cc2)CC1 (stereo not shown) yields pIC50 of > 6.00

New cases:
The recorded pIC50 for CN1CCN(c2ccc(Nc3ncc4ccc(=O)n(CCc5ccccc5)c4n3)cc2)CC1 is 5.00 to 6.00

What the record says about Cc1ccc(C)c(Cn2c(=O)ccc3cnc(Nc4ccc(N5CCN(C)CC5)cc4)nc32)c1 : pIC50 is 5.00 to 6.00

Lookup result for CN1CCN(c2ccc(Nc3ncc4ccc(=O)n(C5CCCc6ccccc65)c4n3)cc2)CC1 (stereo not shown) ; measured pIC50: 5.00 to 6.00

Item: CN1CCCC(Nc2ccc(Nc3ncc4ccc(=O)n(Cc5ccccc5C(F)(F)F)c4n3)cc2)C1 (stereo not shown) | pIC50: > 6.00

pIC50 reported for this compound O=c1ccc2cnc(Nc3ccc(OC4CCCNC4)cc3)nc2n1Cc1ccccc1C(F)(F)F (stereo not shown) : > 6.00

Entry under test: O=c1c(-c2ccccc2)cc2cnc(Nc3ccc(NC4CCCNC4)cc3)nc2n1Cc1ccccc1C(F)(F)F (stereo not shown) . Its pIC50 was > 6.00

Please fill in: pIC50 reported for CN(C)CC(c1ccccc1)n1c(=O)ccc2cnc(Nc3ccc(N4CCOCC4)cc3)nc21 (stereo not shown) = < 5.00

The recorded pIC50 for O=c1ccc2cnc(Nc3ccc(NC4CCNCC4)cc3)nc2n1Cc1ccccc1C(F)(F)F is > 6.00

// pIC50 value for Cc1cc(Nc2nccc(-c3ccc(NCCN)nc3)n2)ccc1N1CCN(C)CC1 : 5.00 to 6.00

For record CN1CCN(c2ccc(Nc3ncc4ccc(=O)n(Cc5ccccc5C(F)(F)F)c4n3)cc2)CC1 the listed pIC50 is > 6.00

Sample CN1CCN(c2ccc(Nc3ncc4ccc(=O)n(C5CCCC5)c4n3)cc2)CC1 ; pIC50 observed: 5.00 to 6.00

The value of pIC50 measured for the compound CC(c1ccccc1)n1c(=O)ccc2cnc(Nc3ccc(N4CCN(C)CC4)cc3)nc21 (stereo not shown) turned out to be < 5.00

Lab note: O=c1ccc2cnc(Nc3ccc(N4CCNCC4)c(F)c3)nc2n1C1CCc2ccccc2C1 (stereo not shown) gave pIC50 of > 6.00
